substrate: CC(=O)C=O; assay: purified protein, by the assay type; conditions: other: methylglyoxal 1.3-30 mM, 0.2 mM NADPH, pH 7.5, 37° C.
RECORDED_ENDPOINT: Km (mM)
Respond numerically; units are mM and should not be typed.

Task: Please give the measured Km for this protein: Escherichia coli MG1655 YqhD, native (wild type), SEQ ID NO: 56 (Escherichia coli K-12) (protein) MNNFNLHTPTRILFGKGAIAGLREQIPHDARVLITYGGGSVKKTGVLDQVLDALKGMDVLEFGGIEPNPAYETLMNAVKLVREQKVTFLLAVGGGSVLDGTKFIAAAANYPENIDPWHILQTGGKEIKSAIPMGCVLTLPATGSESNAGAVISRKTTGDKQAFHSAHVQPVFAVLDPVYTYTLPPRQVANGVVDAFVHTVEQYVTKPVDAKIQDRFAEGILLTLIEDGPKALKEPENYDVRANVMWAATQALNGLIGAGVPQDWATHMLGHELTAMHGLDHAQTLAIVLPALWNEKRDTKRAKLLQYAERVWNITEGSDDERIDAAIAATRNFFEQLGVPTHLSDYGLDGSSIPALLKKLEEHGMTQLGENHDITLDVSRRIYEAAR
Output: 4.81
